Reported half-life values for the following compounds.
# protocolText: Pharmacokinetics assay in rats (intragastric and tail vein administration, plasma LC/MS/MS)
# Type: in vivo
# testSettings: both sexes, Sprague-Dawley (SD), rat, plasma, po, 10 mg/kg, intragastric 10 mg/kg
Counter-ions that a name gives are not always drawn.
measuredParameter: half-life (h)

> print(dat)
                                   compound  measuredparameter  numericvalue
1  Cc1c(/C=C2\C(=O)Nc3ccc(F)cc32)[nH]c2c1C(=O)N(C[C@H](O)CN1CCOCC1)CCC2 [Example 4, mesylate]          half-life          3.41
2  Cc1c(/C=C2\C(=O)Nc3ccc(F)cc32)[nH]c2c1C(=O)N(C[C@H](O)CN1CCOCC1)CCC2.O=C(O)C[C@H](O)C(=O)O          half-life          3.13
3  Cc1c(/C=C2\C(=O)Nc3ccc(F)cc32)[nH]c2c1C(=O)N(C[C@H](O)CN1CCOCC1)CCC2.Cl          half-life           3.6
4  CC(O)C(=O)O.Cc1c(/C=C2\C(=O)Nc3ccc(F)cc32)[nH]c2c1C(=O)N(C[C@H](O)CN1CCOCC1)CCC2          half-life          3.06
